meta.source: patent JP2005330292A

studyTarget: T1, ヒト組織因子(TF)(ヒト膀胱癌細胞J82上に発現) (human, UniProt P13726 33-295)
T1 construct: whole, on cells; Target of the cell ELISA; also called ヒトTF; 抗原
assayNotes: cell ELISA on fixed J82 cells
measuredProperty: binding result

| binder | assayValue |
| --- | --- |
| H鎖ヒト型化バージョンj/L鎖キメラ抗体 (antibody, V domains shown, Human IgG4 kappa (vector N5KG4P); also called j-ch) VH: QVQLLESGAVLARPGTSVKISCKASGFNIKDYYMHWVKQRPGQGLEWIGGNDPANGHSMYDPKFQGRVTFTADTSANTAYMELRSLRSADTAVYYCARDSGYAMDYWGQGTLVTVSS VL: DIKMTQSPSSMYASLGERVTITCKASQDIKSFLSWYQQKPWKSPKTLIYYATSLADGVPSRFSGSGSGQDYSLTINNLESDDTATYYCLQHGESPYTFGGGTKLEIK | binds |
